# ASSAY NOTES: Brain penetration in mice
# Assay type: in vivo
# PROTOCOL CONDITIONS: mouse, brain and plasma, ip, 5 mg/kg
Reported Kp at 60 min values are given for each entry in this list.

>>> measured_value("CN(CCN[C@@H]1CCNc2c(Cl)cc(Cl)cc21)c1nc2nc(Cl)ccc2[nH]1")
0.191

Please find the next molecule below.
Prompt: Return reported Kp at 60 min. Input molecule: "CCOc1c(Br)cc(Br)cc1CN[C@H]1CCCN(c2nc3nc(Cl)ccc3[nH]2)C1"
Completion: 0.044
